Entry source: patent US20230210770A1

# Assay remarks: Solubility of nintedanib in a representative water-based emulsion system
# Format: physicochemical
# Condition details: water-based emulsion, aqueous with cosolvent or surfactant or cyclodextrin, Nintedanib solubility, emulsion F70 lot 2: castor oil 1, polysorbate 80 1, polyoxyl-35 castor oil 2, water 95
Test readout: solubility (µg/mL)

COC(=O)c1ccc2c(c1)NC(=O)/C2=C(\Nc1ccc(N(C)C(=O)CN2CCN(C)CC2)cc1)c1ccccc1 [Nintedanib, nintedanib]: 3400

###

# Assay remarks: Solubility of nintedanib in a representative water-based emulsion system
# Assay type: physicochemical
# Condition details: water-based emulsion, aqueous with cosolvent or surfactant or cyclodextrin, Nintedanib solubility, emulsion F70 lot 1: castor oil 1, polysorbate 80 1, polyoxyl-35 castor oil 2, water 95
Test readout: solubility

COC(=O)c1ccc2c(c1)NC(=O)/C2=C(\Nc1ccc(N(C)C(=O)CN2CCN(C)CC2)cc1)c1ccccc1: 5000 µg/mL
